Data provenance: patent US8916557B2

tgt: CDK9/CycT1 (Homo sapiens, UniProt P50750)
Construct: Recombinant full-length His-tagged human CDK9 and CycT1; His
Sequence (P50750 whole entry): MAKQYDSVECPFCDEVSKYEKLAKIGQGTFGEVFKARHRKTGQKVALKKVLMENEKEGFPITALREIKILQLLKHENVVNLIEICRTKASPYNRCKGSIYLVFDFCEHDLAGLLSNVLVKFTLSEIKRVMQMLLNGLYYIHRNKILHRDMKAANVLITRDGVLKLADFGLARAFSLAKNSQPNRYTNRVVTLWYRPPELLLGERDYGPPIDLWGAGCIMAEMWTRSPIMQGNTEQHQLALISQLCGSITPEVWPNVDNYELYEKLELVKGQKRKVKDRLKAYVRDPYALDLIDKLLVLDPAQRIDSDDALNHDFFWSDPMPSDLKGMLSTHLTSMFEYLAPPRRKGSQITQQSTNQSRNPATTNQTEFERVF
Sequence (O60563 whole entry partner): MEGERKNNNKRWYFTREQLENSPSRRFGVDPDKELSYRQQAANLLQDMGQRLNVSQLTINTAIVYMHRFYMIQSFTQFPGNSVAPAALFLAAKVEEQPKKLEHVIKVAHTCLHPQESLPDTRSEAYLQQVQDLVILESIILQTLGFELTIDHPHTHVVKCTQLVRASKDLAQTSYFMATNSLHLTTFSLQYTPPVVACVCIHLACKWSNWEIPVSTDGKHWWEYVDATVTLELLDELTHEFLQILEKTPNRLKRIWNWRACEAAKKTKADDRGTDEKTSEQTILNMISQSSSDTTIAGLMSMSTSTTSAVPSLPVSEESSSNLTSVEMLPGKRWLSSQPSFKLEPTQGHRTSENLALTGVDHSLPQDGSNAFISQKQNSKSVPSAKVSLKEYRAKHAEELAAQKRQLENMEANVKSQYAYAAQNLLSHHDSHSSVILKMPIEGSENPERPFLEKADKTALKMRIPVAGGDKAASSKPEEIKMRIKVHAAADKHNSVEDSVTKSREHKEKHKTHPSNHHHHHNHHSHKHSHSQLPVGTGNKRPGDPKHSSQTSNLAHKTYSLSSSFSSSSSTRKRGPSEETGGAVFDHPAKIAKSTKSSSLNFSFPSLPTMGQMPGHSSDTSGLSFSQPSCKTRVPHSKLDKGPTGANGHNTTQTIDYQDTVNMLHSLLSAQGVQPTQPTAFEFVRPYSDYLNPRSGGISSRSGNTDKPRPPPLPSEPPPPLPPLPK
protocol_notes: CDK9/CycT1 kinase assay (TR-FRET)
run_parameters: Method 1, 10 μM ATP
test_readout: IC50 (µM)

Recorded IC50, per entry:
COc1cc(F)ccc1-c1ncnc(Nc2ccc(F)c(CS(C)(=O)=O)c2)n1 ... 0.006
COc1cnccc1-c1ncnc(Nc2cccc(CS(C)(=O)=O)c2)n1 ... 0.037
COc1ncccc1-c1ncnc(Nc2cccc(CS(C)(=O)=O)c2)n1 ... 0.11

[I] COc1cc(F)ccc1-c1ncnc(Nc2cccc(CS(=O)(=O)c3ccccc3)c2)n1
[II] CS(=O)(=O)Cc1cccc(Nc2ncnc(-c3ccccc3OCc3ccc(F)cc3)n2)c1
[III] Cc1ccc(COc2cc(F)ccc2-c2ncnc(Nc3cccc(CS(C)(=O)=O)c3)n2)cc1
Could you please sort these 3 entries by IC50 from high to low? A ranking is expressed here by listing the labels in the requested order.
I, III, II
(I: 0.03 µM, III: 0.013 µM, II: 0.007 µM)
